Overview of reported Ki across a group of compounds:
target: Sodium-dependent dopamine transporter (Rattus norvegicus)
Sequence (P23977 whole entry): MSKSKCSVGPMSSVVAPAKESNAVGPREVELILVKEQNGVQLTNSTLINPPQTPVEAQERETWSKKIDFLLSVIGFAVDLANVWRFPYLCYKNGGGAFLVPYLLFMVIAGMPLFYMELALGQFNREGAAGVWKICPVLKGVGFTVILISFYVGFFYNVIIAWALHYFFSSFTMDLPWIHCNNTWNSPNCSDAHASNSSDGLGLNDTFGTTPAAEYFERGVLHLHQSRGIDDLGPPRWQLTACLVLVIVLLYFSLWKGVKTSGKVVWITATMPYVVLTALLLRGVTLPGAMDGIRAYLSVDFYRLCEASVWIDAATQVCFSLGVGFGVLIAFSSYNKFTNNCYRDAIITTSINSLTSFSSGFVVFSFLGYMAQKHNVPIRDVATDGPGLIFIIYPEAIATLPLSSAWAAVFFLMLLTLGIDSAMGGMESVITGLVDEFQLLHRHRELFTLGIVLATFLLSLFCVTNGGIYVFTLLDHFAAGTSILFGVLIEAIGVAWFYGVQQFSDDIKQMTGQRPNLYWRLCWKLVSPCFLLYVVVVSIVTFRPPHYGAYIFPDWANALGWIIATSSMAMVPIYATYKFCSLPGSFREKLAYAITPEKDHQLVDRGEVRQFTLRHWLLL

Compound: O=C(CCN1[C@@H]2CC[C@H]1C[C@@H](OC(c1ccc(F)cc1)c1ccc(F)cc1)C2)Nc1ccccc1
U: nM
Ki: 27.6
//
Compound: O=C(NCCN1C2CCC1CC(OC(c1ccc(F)cc1)c1ccc(F)cc1)C2)c1ccccc1 (configuration not stated)
U: nM
Ki: 13.1
//
Compound: Fc1ccc(C(OC2CC3CCC(C2)N3CCOCc2ccccc2)c2ccc(F)cc2)cc1 (configuration not stated)
U: nM
Ki: 48.5
//
Compound: Fc1ccc(C(OC2CC3CCC(C2)N3CCOCCN2CCOCC2)c2ccc(F)cc2)cc1 (configuration not stated)
U: nM
Ki: 1620
//
Compound: OCCOCCN1C2CCC1CC(OC(c1ccc(F)cc1)c1ccc(F)cc1)C2 (configuration not stated)
U: nM
Ki: 42.6
//
Compound: Fc1ccc(C(OC2CC3CCC(C2)N3CCCOc2ccccc2)c2ccc(F)cc2)cc1 (configuration not stated)
U: nM
Ki: 703
//
Compound: Fc1ccc(C(OC2CC3CCC(C2)N3CCOCc2cccs2)c2ccc(F)cc2)cc1 (configuration not stated)
U: nM
Ki: 65.9

Cited source: ChEMBL document CHEMBL1148338
